- Test Details: AUC (0 to infinity) in Sprague-Dawley rat at 20.2 mg/kg, po
- Format: ADME, organism-based
- Set-up: time infinity, dose 20.2 mg/kg, route oral
- Assay Conditions: plasma
Quantity Kind: AUC(0-inf) (µM·h)
API: value field is a number in µM·h; no unit string.

Exercise: // query AUC(0-inf) value for entry "CS(=O)(=O)c1ccc(-c2cnc(N)c(-c3ccc(C(F)(F)F)nc3)c2)cc1"
Solution: 74.2

---

- Test Details: AUC (0 to infinity) in Sprague-Dawley rat at 22.3 mg/kg, po
- Format: ADME, organism-based
- Design: time infinity, dose 22.3 mg/kg, route oral
- Assay Conditions: plasma
Quantity Kind: AUC(0-inf)
Answer format reminder: number followed by unit.

Exercise: Would you kindly share the measured AUC(0-inf) for "COc1ccc(-c2cc(-c3ccc(S(C)(=O)=O)cc3)cnc2N)cn1" ?
Solution: 115 µM·h

---

- Test Details: AUC (0 to infinity) in Sprague-Dawley rat at […], iv
- Assay type: ADME, organism-based
- Set-up: time infinity, dose 4.7 mg/kg, route intravenous
- Assay Conditions: plasma
Quantity Kind: AUC(0-inf) (µM·h)
Use µM·h as the unit, but write only the number.

smiles=COc1ccc(-c2cc(-c3ccc(S(C)(=O)=O)cc3)cnc2N)cn1 value=13.2

Exercise: Give the measured AUC(0-inf) of "CS(=O)(=O)c1ccc(-c2cnc(N)c(-c3ccc(C(F)(F)F)cc3)c2)cc1" .
Solution: 6.98

---

- Test Details: Kinetic solubility of the compound in phosphate buffer after 30 mins by nephelometry at pH 6.5
- Assay type: physicochemical
- Assay Conditions: read-out: Kinetic_solubility
Quick reference for solubility kinetic at 0.5 h among some molecules
Write the numeric value and append its unit.

smiles=CS(=O)(=O)c1ccc(-c2cnc(N)c(-c3ccc(C(F)(F)F)nc3)c2)cc1 value="6.3 µg/mL"
smiles=Cc1ccc(-c2cc(-c3ccc(S(C)(=O)=O)cc3)cnc2N)cn1 value="50 µg/mL"
smiles=CS(=O)(=O)c1ccc(-c2cnc(N)c(-c3ccc(CO)nc3)c2)cc1 value="25 µg/mL"

// switching to the query molecule
Exercise: Field request: solubility kinetic at 0.5 h | item: "Cc1ccc(-c2cc(-c3ccc(S(C)(=O)=O)cc3)cnc2N)cc1C(F)(F)F"
Solution: 1.6 µg/mL

---

# MSD annotations
- System: Plasmodium berghei
- Test Details: Antimalarial activity against Plasmodium berghei ANKA expressing GFP infected in Sprague-Dawley rat assessed as mean survival days of host at 100 mg/kg, po administered as single dose
- Assay type: functional
Kindly provide the numeric value in days only, without the unit symbol.

Worked set:
compound=CS(=O)(=O)c1ccc(-c2cnc(N)c(-c3ccc(C#N)cc3)c2)cc1 quantity_kind=MSD result_units=days value=14
compound=COc1ccc(-c2cc(-c3ccc(S(C)(=O)=O)cc3)cnc2N)cn1 quantity_kind=MSD result_units=days value=21
compound="CCN(CC)CCCC(C)Nc1ccnc2cc(Cl)ccc12 (stereo unspecified)" quantity_kind=MSD result_units=days value=12
compound=CS(=O)(=O)c1ccc(-c2cnc(N)c(-c3ccc(C(N)=O)cc3)c2)cc1 quantity_kind=MSD result_units=days value=7

Now look at this one.
Exercise: Look up MSD: "CNC(=O)c1ccc(-c2cc(-c3ccc(S(C)(=O)=O)cc3)cnc2N)cc1"
Solution: 6

These entries and their values trace back to ChEMBL document CHEMBL2040800.
